Entry source: ChEMBL document CHEMBL1961873

# TEST_SYSTEM: Glycogen synthase kinase-3 beta (Homo sapiens) (UniProt P49841);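 note: values are mean percent inhibition of GSK3B activity, from the GSK Published Kinase Inhibitor Set (PKIS) screening dataset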
# Sequence (P49841 whole entry, looked up): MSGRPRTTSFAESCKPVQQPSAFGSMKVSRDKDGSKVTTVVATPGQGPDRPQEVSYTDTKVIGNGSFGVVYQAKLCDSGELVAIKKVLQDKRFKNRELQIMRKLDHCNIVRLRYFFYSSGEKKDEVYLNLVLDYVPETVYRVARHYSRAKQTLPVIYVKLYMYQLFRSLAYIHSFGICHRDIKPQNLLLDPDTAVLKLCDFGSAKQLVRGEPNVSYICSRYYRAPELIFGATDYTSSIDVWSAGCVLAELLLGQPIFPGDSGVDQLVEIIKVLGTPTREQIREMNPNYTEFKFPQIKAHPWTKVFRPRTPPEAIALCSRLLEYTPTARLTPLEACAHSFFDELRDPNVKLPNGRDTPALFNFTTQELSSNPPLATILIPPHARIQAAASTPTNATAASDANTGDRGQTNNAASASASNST
# ASSAY_CONTEXT: at 0.1 µM
Provide the recorded inhibition for the entries that follow.
Quick note: number first, unit second.

Consider the worked cases shown below.
                                   compound                               test_system  value_kind  reported_measurement
0  CCCN1CCCC(c2ccc(Nc3nc(Nc4cc(F)ccc4C(N)=O)c4cc[nH]c4n3)c(OC)c2)C1 (stereo not given)  Glycogen synthase kinase-3 beta (Homo sapiens) (UniProt P49841)  inhibition                  0.7%
1  Nc1ccc(C#Cc2cncnc2Nc2ccc(OCc3cccc(F)c3)c(Cl)c2)cc1  Glycogen synthase kinase-3 beta (Homo sapiens) (UniProt P49841)  inhibition                 1.95%
2  Cc1cc(-c2ccccn2)cc(C)c1/C=C/c1cncc(-c2nn[nH]n2)c1  Glycogen synthase kinase-3 beta (Homo sapiens) (UniProt P49841)  inhibition                 5.72%

Give inhibition for each of the items listed below.
1. Cc1ccc2c(c1)/C(=N/Nc1ccc(S(N)(=O)=O)cc1)C(=O)N2
2. C[C@@H](Oc1cc(-n2cnc3ccc(OCC4CCN(C)CC4)cc32)sc1C(N)=O)c1ccccc1C(F)(F)F
3. Cc1ccc(O)cc1Nc1ccnc2ccc(S(C)(=O)=O)cc12

1.9%
-0.31%
1.89%

Give inhibition for each of the items listed below.
1. N#Cc1cccc(Nc2nccc(-c3cnn4ncccc34)n2)c1
2. NC(=O)c1cccc(Nc2nccc(Nc3cccc(F)c3)n2)c1
3. c1ccc(Cc2nc3ccc(Nc4ncnc5ccccc45)cc3[nH]2)cc1
4. CN(c1ccc(NC(=O)Nc2ccc(OC(F)(F)F)cc2)cc1)c1ccnc(Nc2cccc(S(N)(=O)=O)c2)n1

1. 84.1%
2. 2.25%
3. 5.99%
4. 0.92%

----------
# TEST_SYSTEM: Testis-specific serine/threonine-protein kinase 2 (Homo sapiens) (UniProt Q96PF2);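 note: values are mean inhibition of TSSK2 activity from the GSK PKIS profiling panel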
# Sequence (Q96PF2 whole entry): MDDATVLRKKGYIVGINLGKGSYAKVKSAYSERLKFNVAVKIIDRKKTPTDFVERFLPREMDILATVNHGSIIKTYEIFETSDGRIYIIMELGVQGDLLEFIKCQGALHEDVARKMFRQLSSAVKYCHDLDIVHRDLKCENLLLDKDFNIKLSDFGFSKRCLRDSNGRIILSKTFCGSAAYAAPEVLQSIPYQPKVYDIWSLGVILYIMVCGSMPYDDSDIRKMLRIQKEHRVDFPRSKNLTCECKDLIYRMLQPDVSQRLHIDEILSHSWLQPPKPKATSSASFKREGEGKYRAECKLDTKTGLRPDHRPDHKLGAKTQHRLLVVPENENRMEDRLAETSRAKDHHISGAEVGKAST
# ASSAY_CONTEXT: at 0.1 µM
VALUE_KIND: inhibition (%)
Answers are plain numbers, in %.

Consider the worked cases shown below.
>>> df
                            chemical_smiles                               test_system  value_kind  readout_units  reported_measurement
0         N#Cc1c(NC(=O)c2ccccc2F)sc2c1CCCC2  Testis-specific serine/threonine-protein kinase 2 (Homo sapiens) (UniProt Q96PF2)  inhibition              %                  0.05
1  C[C@@H](Oc1cc(-n2cnc3ccc(OC[C@@H](O)CO)cc32)sc1C(N)=O)c1ccccc1Cl  Testis-specific serine/threonine-protein kinase 2 (Homo sapiens) (UniProt Q96PF2)  inhibition              %                 -0.99

Give inhibition for each of the items listed below.
1. O=C1Nc2ccccc2/C1=C/Nc1ccc2[nH]c(=O)[nH]c2c1
2. Oc1cccc(-c2nc(-c3ccccc3)[nH]c2-c2ccncc2)c1
3. NS(=O)(=O)c1cccc(-c2cc3ccncc3cc2OCc2ccccc2)c1
4. CN(c1ccc(NC(=O)Nc2ccc(OC(F)(F)F)cc2)cc1)c1ccnc(Nc2cccc(S(N)(=O)=O)c2)n1
5. FC(F)(F)c1ccc(-c2nn3ncccc3c2-c2ccnc(Nc3ccc4c(c3)OCCO4)n2)cc1

3.14
3.51
2.68
1.3
2.11

----------
Provide the recorded inhibition for the entries that follow.
# TEST_SYSTEM: Serine/threonine-protein kinase 26 (Homo sapiens) (UniProt Q9P289);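 note: mean inhibition of MST4 kinase activity, reported from the GSK PKIS inhibitor-set screening panel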
# Sequence (Q9P289 2-416 limits assumed): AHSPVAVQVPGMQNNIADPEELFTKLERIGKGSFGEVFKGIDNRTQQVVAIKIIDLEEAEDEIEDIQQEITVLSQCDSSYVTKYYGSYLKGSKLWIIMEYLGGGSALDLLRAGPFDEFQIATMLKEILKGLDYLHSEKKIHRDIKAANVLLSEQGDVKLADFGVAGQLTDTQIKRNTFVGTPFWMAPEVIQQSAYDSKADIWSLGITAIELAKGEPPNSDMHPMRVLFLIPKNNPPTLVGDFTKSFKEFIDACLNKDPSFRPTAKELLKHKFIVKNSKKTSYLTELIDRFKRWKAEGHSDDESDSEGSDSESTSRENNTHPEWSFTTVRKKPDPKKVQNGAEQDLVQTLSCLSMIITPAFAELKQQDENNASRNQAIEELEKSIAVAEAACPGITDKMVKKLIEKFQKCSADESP
# ASSAY_CONTEXT: at 1 µM
Give bare numbers, in %.

Consider the worked cases shown below.
                            chemical_smiles  value_kind  readout_units  reported_measurement
0  COc1cc2ncn(-c3cc(OCc4ccccc4S(C)(=O)=O)c(C#N)s3)c2cc1OC  inhibition              %                  0.22
1   Cc1ccc(O)cc1Nc1ccnc2ccc(S(C)(=O)=O)cc12  inhibition              %                 -0.56

Give inhibition for each of the items listed below.
1. CN1CCN(C(=O)c2ccc(NC(=O)Nc3ccc(N(C)c4ccnc(Nc5ccc(CS(C)(=O)=O)cc5)n4)cc3)cc2)CC1
2. Nc1nccc(-c2c(-c3ccc(F)cc3)nn3cc(C(F)(F)F)ccc23)n1
3. NS(=O)(=O)c1ccc(N/N=C2\C(=O)Nc3ccc(Cl)cc32)cc1
4. CN(C)C(=O)O[C@H]1CN[C@H](C#Cc2cc3ncnc(Nc4ccc(OCc5cccc(F)c5)c(Cl)c4)c3s2)C1
5. Cc1ccc2c(c1)/C(=N/Nc1ccc(S(N)(=O)=O)cc1)C(=O)N2
6. CN(C)c1cc2c(Nc3ccc4c(cnn4Cc4ccccc4)c3)ncnc2cn1

[12.8, 0.4, 13.4, -0.62, 17.1, -0.54]

----------
# TEST_SYSTEM: Inhibitor of nuclear factor kappa-B kinase subunit epsilon (Homo sapiens);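 note: reported values are averaged percent inhibition figures against human IKKε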
# Sequence (whole entry): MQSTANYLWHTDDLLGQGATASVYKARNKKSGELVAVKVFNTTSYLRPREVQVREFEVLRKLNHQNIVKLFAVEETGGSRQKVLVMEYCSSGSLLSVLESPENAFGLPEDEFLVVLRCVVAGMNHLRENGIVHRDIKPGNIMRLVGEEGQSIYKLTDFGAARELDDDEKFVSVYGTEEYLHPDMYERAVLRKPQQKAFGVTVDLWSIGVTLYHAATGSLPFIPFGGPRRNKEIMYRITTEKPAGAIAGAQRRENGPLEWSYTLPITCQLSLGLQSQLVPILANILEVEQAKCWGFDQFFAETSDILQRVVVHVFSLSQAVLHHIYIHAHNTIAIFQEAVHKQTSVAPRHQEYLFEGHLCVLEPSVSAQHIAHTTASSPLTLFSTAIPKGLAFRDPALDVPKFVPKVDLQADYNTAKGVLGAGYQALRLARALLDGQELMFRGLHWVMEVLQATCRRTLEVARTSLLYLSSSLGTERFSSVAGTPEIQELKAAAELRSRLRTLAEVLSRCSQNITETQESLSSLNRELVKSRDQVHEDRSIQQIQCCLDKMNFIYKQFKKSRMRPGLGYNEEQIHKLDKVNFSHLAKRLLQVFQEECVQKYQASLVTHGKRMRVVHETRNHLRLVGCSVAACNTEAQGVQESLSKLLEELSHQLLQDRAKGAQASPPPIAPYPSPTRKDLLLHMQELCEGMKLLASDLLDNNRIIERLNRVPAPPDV
# ASSAY_CONTEXT: at 1 µM
VALUE_KIND: inhibition (%)
One number for each entry, in %.

                            chemical_smiles                               test_system  value_kind  reported_measurement
0             c1ccc(Nc2ncc(-c3ccccc3)o2)cc1  Inhibitor of nuclear factor kappa-B kinase subunit epsilon (Homo sapiens)  inhibition                  8.49
1  c1ccc(Cc2nc3ccc(Nc4ncnc5ccccc45)cc3[nH]2)cc1  Inhibitor of nuclear factor kappa-B kinase subunit epsilon (Homo sapiens)  inhibition                  4.77
2  CC(C)c1ccc(Nc2nccc(-c3cnn4ncccc34)n2)cc1  Inhibitor of nuclear factor kappa-B kinase subunit epsilon (Homo sapiens)  inhibition                  7.95
3  COc1cccc(-n2ncc3c(N/N=C/c4ccc(C)cc4)ncnc32)c1  Inhibitor of nuclear factor kappa-B kinase subunit epsilon (Homo sapiens)  inhibition                   6.9

Next item in the queue.
Return reported inhibition; argument: "CN(C)C(=O)O[C@@H]1CN[C@@H](C#Cc2cc3ncnc(Nc4ccc(OCc5cccc(F)c5)c(Cl)c4)c3s2)C1" -2.71

----------
Provide the recorded inhibition for the entries that follow.
# TEST_SYSTEM: Aurora kinase C (Homo sapiens) (UniProt Q9UQB9);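 note: reported value is a mean inhibition of Aurora-C from the GSK PKIS screening panel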
# Sequence (whole entry): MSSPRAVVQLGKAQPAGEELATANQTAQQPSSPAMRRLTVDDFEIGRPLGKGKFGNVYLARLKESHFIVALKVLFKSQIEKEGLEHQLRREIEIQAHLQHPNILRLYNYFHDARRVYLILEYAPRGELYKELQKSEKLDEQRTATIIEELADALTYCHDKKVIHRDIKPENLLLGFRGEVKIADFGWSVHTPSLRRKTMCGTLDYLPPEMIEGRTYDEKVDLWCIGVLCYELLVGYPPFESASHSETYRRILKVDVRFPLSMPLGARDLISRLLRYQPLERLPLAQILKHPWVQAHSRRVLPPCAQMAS
# ASSAY_CONTEXT: at 1 µM
Give bare numbers, in %.

Consider the worked cases shown below.
In [3]: df
Out[3]:
                            chemical_smiles  reported_measurement
0  COc1cccc(-n2ncc3c(N/N=C/c4ccc(C)cc4)ncnc32)c1                  4.66
1             c1ccc(Nc2ncc(-c3ccccc3)o2)cc1                    16
2  CN(C)c1cc2c(Nc3ccc4c(cnn4Cc4ccccc4)c3)ncnc2cn1                  27.6
3  COc1cc(Nc2nccc(-c3cnn4ncccc34)n2)cc(OC)c1                  94.4
4  COc1cccc(-n2ncc3c(N/N=C/c4ccc(S(C)(=O)=O)cc4)ncnc32)c1                  12.2

Next item in the queue.
Return reported inhibition; argument: "CS(=O)(=O)Nc1cccc(-c2ccc3c(NC(=O)C4CC4)n[nH]c3c2)c1" 15.6
